- System: VEEV TC83
- ASSAY_REMARKS: microbe, parasite or virus in culture
- Assay type: cell-based
- CONDITION_DESCRIPTION: Venezuelan equine encephalitis virus, Vero 76, 48 h, read-out: VEEV TC83 EC50 nM
EXPERIMENTAL_READOUT: EC50

| COMPOUND | EC50 |
| --- | --- |
| COc1ccc(-n2c([C@@H]3CCCN3C)nc3c(C)cc([N+](=O)[O-])cc3c2=O)cc1 [Example 58] | 1 to 50 nM |
| COc1ccc(-n2c(C3C[C@@H]4CCC[C@@H]4N3)nc3c(-c4ccc(C)nc4)cc(C#N)cc3c2=O)cc1F (some centres unmarked) [Example 140] | 1 to 50 nM |
| COc1ccc(-n2c(C3CCCN3)nc3c(-c4ccc(N5CCN(C)CC5)nc4)cc(C#N)cc3c2=O)cc1F (centres unmarked) [Example 132] | 1 to 50 nM |
| COc1ccc(-n2c(C3CCCN3)nc3c(N4CCC(N5CCOCC5)CC4)cc(C#N)cc3c2=O)cc1F (centres unmarked) [Example 114] | 1 to 50 nM |
| COc1ccc(-c2cc(C#N)cc3c(=O)n(-c4ccc(OC)c(F)c4)c(C4CCCN4)nc23)cc1 (centres unmarked) [Example 147] | 1 to 50 nM |
| COc1ccc(-n2c([C@H]3CCCN3)nc3c(C4CC4)cc([N+](=O)[O-])cc3c2=O)cc1 [Example 95] | 1 to 50 nM |
| COc1c(F)cc(-n2c(C3C[C@H](F)CN3)nc3c(-c4ccnc(C)c4)cc(C#N)cc3c2=O)cc1F (some centres unmarked) [Example 156] | 1 to 50 nM |
| COc1ccc(-n2c([C@@H]3CCNC3)nc3ccc([N+](=O)[O-])cc3c2=O)cc1 [Example 19] | 1 to 50 nM |

[in] Return EC50 (reported value) for this compound: COc1ccc(-n2c([C@@H]3CC(F)(F)CN3)nc3c(-c4ccc(C)nc4)cc(C#N)cc3c2=O)cc1F [Example 183]
[out] 151 to 500 nM

[in] For COc1c(F)cc(-n2c(C3CCCN3)nc3c(-c4ccc(C(C)(C)O)nc4)cc(C#N)cc3c2=O)cc1F (centres unmarked) [Example 182] , write its EC50.
[out] 1 to 50 nM

[in] Write down EC50 measured for item COc1ccc(-n2c([C@H]3CCCN3)nc3c(-c4cncc(C#N)c4)cc([N+](=O)[O-])cc3c2=O)cc1F [Example 94]
[out] 1 to 50 nM

[in] For COc1c(F)cc(-n2c([C@H]3CCCN3)nc3c(-c4ccc(C)nc4)cc(C#N)cc3c2=O)cc1F [Example 119] , write its EC50.
[out] 1 to 50 nM

[in] Respond only with EC50 recorded for COc1ccc(-n2c([C@H]3CCCN3)nc3c(-c4cncc(F)c4)cc([N+](=O)[O-])cc3c2=O)cc1F [Example 93]
[out] 1 to 50 nM

[in] Give a short answer stating reported EC50 for COc1ccc(-n2c(-c3ncco3)nc3c(-c4ccc(C)nc4)cc(C#N)cc3c2=O)cc1F [Example 202] .
[out] > 1000 nM

----------
- Tested on: VEEV TC83
- ASSAY_REMARKS: microbe, parasite or virus in culture
- Assay type: cell-based
- CONDITION_DESCRIPTION: Venezuelan equine encephalitis virus, Vero 76, 48 h, read-out: VEEV TC83 EC50 nM
Reported EC50 values are given for each entry in this list.

| MOLECULE | TARGET_SYSTEM | EC50 |
| --- | --- | --- |
| O=c1c2cc([N+](=O)[O-])ccc2nc(C2CCCN2)n1-c1ccccc1F (stereo not shown) | VEEV TC83 | 501 to 1000 nM |
| COc1ccc(-n2c([C@@H]3C[C@@](O)(C(F)(F)F)CN3)nc3c(-c4ccc(C)nc4)cc(C#N)cc3c2=O)cc1F | VEEV TC83 | 1 to 50 nM |
| COc1ccc(-n2c([C@@H]3CCCN3)nc3ccc([N+](=O)[O-])cc3c2=O)cc1 | VEEV TC83 | 1 to 50 nM |
| COc1ccc(-n2c([C@H]3CCCN3C)nc3c(-c4ccoc4)cc(C#N)cc3c2=O)cc1F | VEEV TC83 | 1 to 50 nM |
| COc1ccc(-n2c([C@]3(C)CCCN3)nc3c(-c4ccc(C)nc4)cc(C#N)cc3c2=O)cc1F | VEEV TC83 | 1 to 50 nM |
| COc1cc(F)ccc1-n1c([C@H]2CCCN2)nc2ccc([N+](=O)[O-])cc2c1=O | VEEV TC83 | > 1000 nM |

[in] Name the recorded EC50 of the item "COc1ccc(-n2c([C@H]3CCCN3)nc3ccc(C#N)cc3c2=O)cc1" in your answer.
[out] 1 to 50 nM
